Measured values drawn from paper PMC12136788 for this set.

Molecular target: T1, UNK ZnF1-3 (human, UniProt Q9C0B0 31-174)
T1 sequence: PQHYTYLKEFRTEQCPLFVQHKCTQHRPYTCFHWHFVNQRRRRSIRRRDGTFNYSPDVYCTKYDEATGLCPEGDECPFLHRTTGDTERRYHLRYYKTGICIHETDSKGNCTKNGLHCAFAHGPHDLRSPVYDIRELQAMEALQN
Assay: nsRBNS (natural sequence RNA bind-n-seq); RBNS binding buffer (assumed for nsRBNS): 25 mM Tris pH 7.5, 150 mM KCl, 3 mM MgCl2, 0.01% Triton X-100, 500 ug/ml BSA, 20 U/ml SUPERase-In, 4 C; UNK is unkempt and MSI1 is Musashi-1; names of the RNAs are library labels; protein concentration not given here; high values mean tight binding
Over roughly 24,000 sequences, “enrichment r” has its median near 0.99; the highest 2% begin near 3.7. For the sample, the highest values were picked, then their nearest neighbours and some sequences at random.
log10(binding signal) listing for selected binders.
assay readout: log10(binding signal) (log10 of the value in enrichment R)

# binder, log10(binding signal)
measured = [
    ("chr10:33190432:33190433:-_ENSG00000150093_ENST00000302278|hu_mus|hu_hu_hu_mus_True|1_98 (ssRNA) RNA: GGGAGUUCUACAGUCCGACGAUCUACAUUUUCCAAACCUGCACAUGAAUAAAACCCUGGCCACAGAGCCCCAAAACUACCCUACUGUGACUAAGAUGCUGCUGCUGUGAGCUUGGUGUUGCAAAAUCCGCCUGAGUCAGUACUCAACAGAGGAUUGAGCAUCA", 0.05),
    ("chr3:101400026:101400027:-_ENSG00000114391_ENST00000394077|hu_mus|FALSE|FALSE (ssRNA) RNA: GGGAGUUCUACAGUCCGACGAUCCUACCACACUAGCGUUUCCCACCAACUCUGGGGGCAGAGACCUUCACAGGCUUCACAAUCUUUUGUUUAGGUGCUGCCUUUGUGGGGGCCUUGGCAGCAGCCAUUGCUGUCUUCUUUGAUCAACAGAGGAUUGAGCAUCA", -0.12),
    ("chr4:95690885:95690886:+_ENSMUSG00000028572_ENSMUST00000156910|mus_mus|mus_mus_mus_hu_False|78_88 (ssRNA) RNA: GGGAGUUCUACAGUCCGACGAUCUUUAGAAAAUGUUAAAUACCAUGAGCAUGCUAAGUAAUUUUAAUAUUUUAUUUUACCAGAAGUCACAGGCAAGCAGACACUACAAGAAUAUAUGAAAAUGAAACUCAACAAUAUAACUGUCAACAGAGGAUUGAGCAUCA", 0.52),
    ("chr5:32794366:32794367:+_ENSMUSG00000014956_ENSMUST00000015100|mus_mus|FALSE|FALSE (ssRNA) RNA: GGGAGUUCUACAGUCCGACGAUCAGAAGAGAGCCAGCUAUCCAAGGCUUGUCAAAAAGGAUUCUCAUGUUCUGUGAAUCUAAAAACAAACAAACAACAAAAACCCCAAAAAACAAAACCAAUGCAGGUGAGGGUAAUACCAGACAACAGAGGAUUGAGCAUCA", 0.12),
    ("chr2:202488911:202488912:-_ENSG00000155755_ENST00000286196|hu_mus|hu_hu_hu_mus_False|8_98 (ssRNA) RNA: GGGAGUUCUACAGUCCGACGAUCAUUGAAACAUUUUCAUAAUAUUGCAGUAGCAUUUCAGCAUUAUGUAACAAAAGCUCAAUUGUAAAUACAUGUAUCUUAUAAAAAUACACUUAAAAACACGAGUAAAAAUGGGAGGCGCCACAACAGAGGAUUGAGCAUCA", -0.17),
    ("chr1:182620099:182620100:+_ENSMUSG00000058729_ENSMUST00000085803|mus_mus|motif|central (ssRNA) RNA: GGGAGUUCUACAGUCCGACGAUCAACAACAAAGCUUUUAUAAAUUAUGAUAAAUUAAAAUAUUUAUUAUUAUAAUUGAUCGGUAGAACCAUGUCCCACUGUCAGUAUAUGAAACAUACACUUAAGUCCGUGUUUCCCAUCUGUCAACAGAGGAUUGAGCAUCA", 0.87),
    ("chr7:108213676:108213677:+_ENSG00000128590_ENST00000249356|hu_hu|FALSE|FALSE (ssRNA) RNA: GGGAGUUCUACAGUCCGACGAUCUCCAUGAAAUCUAUUUUCAGUCUGUACUGUAUGCUGAUUGGUAGAGUCAAAACCACUAAAAGAAAACAUUUUCUCCAUAUCUUCAAACAUGUCAUCAAAUAAUCCACCUCCAAAAGAAAACAACAGAGGAUUGAGCAUCA", 0.09),
]
